experiment: NCI Yeast Anticancer Drug Screen. Data for the mec2-1 strain (AID 157); details: S. cerevisiae mec2-1 strain, at 50.0 µM (retest, dose inferred, filed as 5.0), stronger effect = higher value
This is part of a sample that, as a whole, favours compounds with a hit. Of some 79,000 tested, about 15% had one in any assay.
Reported growth inhibition values follow for various compounds

{"columns": ["compound", "growth inhibition / %"],
 "data": [
  ["Cc1nc(N)nc(-c2ccccc2)c1N=Nc1ccc(Cl)cc1", 73],
  ["COc1ccccc1/C=N/Nc1nnc(N/N=C/c2ccccc2OC)c2ccccc12", 73],
  ["Cc1cc(NC(=S)SCc2ccc3c(c2)OCO3)ccc1Br", 98],
  ["COC1/C=C\\C=C(/C)C(=O)Nc2cc3nc4cc(Br)ccc4oc-3c(c2=O)CC(C)CC(OC)C(O)C(C)/C=C(\\C)C1OC(N)=O (stereo not given)", 96],
  ["Nc1ccc2oc(=O)c3ccccc3c2c1", 69]
]}

Data origin, for the record: PubChem BioAssay (NCI)
